- Tested on: SUM149PT spheroids with HUVEC/MSC, viability
- test_name: Anticancer human tumor SUM149PT cell line growth inhibition [GQUAD];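 also: spheroids exposed to drugs for seven days before readout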
- reported_conditions: second compound 3.16 µM; first compound 1 µM; active compounds read low
Define the label as yes when viability, T/C is strictly less than 30% and as no in all remaining cases.

1. COc1cccc2c1C(=O)c1c(O)c3c(c(O)c1C2=O)CC(O)(C(=O)CO)CC3OC1CC(N)C(O)C(C)O1 (stereo not given) + Cc1[nH]c2ccc(F)cc2c1-c1nc2c3cccnc3c3ncccc3c2[nH]1
yes
2. CC(C)(O)C1CCC(Nc2ccc3ncc(-c4cccc(C(F)(F)F)c4)n3n2)CC1 (stereo not given) + CN(C)c1ccc(Nc2c3ccc(NC(=O)CCN4CCCC4)cc3nc3cc(NC(=O)CCN4CCCC4)ccc23)cc1
no
3. C=CCn1c(=O)c2cnc(Nc3ccc(N4CCN(C)CC4)cc3)nc2n1-c1cccc(C(C)(C)O)n1 + CN(C)c1ccc(Nc2c3ccc(NC(=O)CCN4CCCC4)cc3nc3cc(NC(=O)CCN4CCCC4)ccc23)cc1
yes
4. COc1cccc2c1C(=O)c1c(O)c3c(c(O)c1C2=O)CC(O)(C(=O)CO)CC3OC1CC(N)C(O)C(C)O1 (stereo not given) + CN(C)c1ccc(Nc2c3ccc(NC(=O)CCN4CCCC4)cc3nc3cc(NC(=O)CCN4CCCC4)ccc23)cc1
yes
5. CC(=O)O[C@H]1C(=O)[C@@]2(C)[C@H]([C@H](OC(=O)c3ccccc3)[C@]3(O)C[C@H](OC(=O)[C@H](O)[C@@H](NC(=O)c4ccccc4)c4ccccc4)C(C)=C1C3(C)C)[C@]1(OC(C)=O)CO[C@@H]1C[C@@H]2O + CN(C)c1ccc(Nc2c3ccc(NC(=O)CCN4CCCC4)cc3nc3cc(NC(=O)CCN4CCCC4)ccc23)cc1
yes
6. CC1COCCN1c1cc(C2(S(C)(=N)=O)CC2)nc(-c2ccnc3[nH]ccc23)n1 (stereo not given) + Cc1[nH]c2ccc(F)cc2c1-c1nc2c3cccnc3c3ncccc3c2[nH]1
no
7. Nc1ccn(C2OC(CO)C(O)C2(F)F)c(=O)n1 (stereo not given) + CN(C)c1ccc(Nc2c3ccc(NC(=O)CCN4CCCC4)cc3nc3cc(NC(=O)CCN4CCCC4)ccc23)cc1
yes
8. CC1COCCN1c1cc(C2(S(C)(=N)=O)CC2)nc(-c2ccnc3[nH]ccc23)n1 (stereo not given) + CN(C)c1ccc(Nc2c3ccc(NC(=O)CCN4CCCC4)cc3nc3cc(NC(=O)CCN4CCCC4)ccc23)cc1
no
9. CC(C)n1c(=O)n(C)c2cnc3cc(F)c(-c4ccc(OCCCN5CCCCC5)nc4)cc3c21 + Cc1cnc(CNC(=O)c2c(=O)c3ccc(N4CCCN(C)CC4)nc3n3c2sc2ccccc23)cn1
no
10. CC(C)n1c(=O)n(C)c2cnc3cc(F)c(-c4ccc(OCCCN5CCCCC5)nc4)cc3c21 + Cc1[nH]c2ccc(F)cc2c1-c1nc2c3cccnc3c3ncccc3c2[nH]1
no
11. Cc1cccc(N(C)C(=O)C2C(O)CCN2c2nc(C)cc(C(F)(F)F)c2C#N)c1 (stereo not given) + Cc1cnc(CNC(=O)c2c(=O)c3ccc(N4CCCN(C)CC4)nc3n3c2sc2ccccc23)cn1
no
12. Nc1ccn(C2OC(CO)C(O)C2(F)F)c(=O)n1 (stereo not given) + Cc1cnc(CNC(=O)c2c(=O)c3ccc(N4CCCN(C)CC4)nc3n3c2sc2ccccc23)cn1
yes
13. CC1COCCN1c1cc(C2(O)CC3CCC(C2)O3)c2cnn(-c3ccn[nH]3)c2n1 (stereo not given) + Cc1cnc(CNC(=O)c2c(=O)c3ccc(N4CCCN(C)CC4)nc3n3c2sc2ccccc23)cn1
yes
14. Nc1ccn(C2OC(CO)C(O)C2(F)F)c(=O)n1 (stereo not given) + Cc1[nH]c2ccc(F)cc2c1-c1nc2c3cccnc3c3ncccc3c2[nH]1
yes
15. CCCS(=O)(=O)Nc1ccc(F)c(C(=O)c2c[nH]c3ncc(-c4ccc(Cl)cc4)cc23)c1F + Cc1cnc(CNC(=O)c2c(=O)c3ccc(N4CCCN(C)CC4)nc3n3c2sc2ccccc23)cn1
no
16. O=c1[nH]cc(F)c(=O)[nH]1 + Cc1cnc(CNC(=O)c2c(=O)c3ccc(N4CCCN(C)CC4)nc3n3c2sc2ccccc23)cn1
no
17. CC(=O)O[C@H]1C(=O)[C@@]2(C)[C@H]([C@H](OC(=O)c3ccccc3)[C@]3(O)C[C@H](OC(=O)[C@H](O)[C@@H](NC(=O)c4ccccc4)c4ccccc4)C(C)=C1C3(C)C)[C@]1(OC(C)=O)CO[C@@H]1C[C@@H]2O + Cc1cnc(CNC(=O)c2c(=O)c3ccc(N4CCCN(C)CC4)nc3n3c2sc2ccccc23)cn1
yes
18. O=C(c1cc(Cc2n[nH]c(=O)c3ccccc23)ccc1F)N1CCN(C(=O)C2CC2)CC1 + CN(C)c1ccc(Nc2c3ccc(NC(=O)CCN4CCCC4)cc3nc3cc(NC(=O)CCN4CCCC4)ccc23)cc1
no
19. C#Cc1c(F)ccc2cc(O)cc(-c3ncc4c(N5CC6CCC(C5)N6)nc(OCC56CCCN5CC(F)C6)nc4c3F)c12 (stereo not given) + CN(C)c1ccc(Nc2c3ccc(NC(=O)CCN4CCCC4)cc3nc3cc(NC(=O)CCN4CCCC4)ccc23)cc1
no
20. CC(C)(O)C1CCC(Nc2ccc3ncc(-c4cccc(C(F)(F)F)c4)n3n2)CC1 (stereo not given) + Cc1cnc(CNC(=O)c2c(=O)c3ccc(N4CCCN(C)CC4)nc3n3c2sc2ccccc23)cn1
no

Origin of measurements: PubChem BioAssay AID2060484
